Values from patent US20230312478A1

Hi there, I'd appreciate the recorded phytotoxicity to the plant, ZEAMX for every entry that follows.
System: Zea mays (ZEAMX)
Experiment: Herbicidal efficacy, application post-emergence
Format: in vivo
Conditions: 250 g/ha, evaluated visually after 13 days, scale 0-5

Answered cases to consult:
Cc1cc(C2CN(C)C(=O)C2C(=O)Nc2cccc(F)c2F)nn1C(F)F (stereo not drawn)
3
Cc1cc(C2CN(C)C(=O)C2C(=O)Nc2ccc(F)cc2F)nn1C(F)F (stereo not drawn)
2
Cc1c(F)cccc1NC(=O)C1C(=O)N(C)CC1c1cc(C)n(C(F)F)n1 (stereo not drawn)
3
CCc1cc(C2CN(C)C(=S)C2C(=O)Nc2cccc(F)c2F)nn1C(F)F (stereo not drawn)
3
Cc1c(Br)c(C2CN(C)C(=O)C2C(=O)Nc2ccc(F)nc2F)nn1C(F)F (stereo not drawn)
4
CCc1cc(C2CN(C)C(=S)C2C(=O)Nc2ccc(F)nc2F)nn1C(F)F (stereo not drawn)
3
CCc1cc(C2CN(C)C(=S)C2C(=O)Nc2ccc(F)cc2F)nn1C(F)F (stereo not drawn)
1
CCc1cc(C2CN(C)C(=O)C2C(=O)Nc2cccc(F)c2C)nn1C(F)F (stereo not drawn)
4

Below: the item to evaluate.
input: Give its phytotoxicity to the plant, ZEAMX value. Item: CCc1cc(C2CN(C)C(=O)C2C(=O)Nc2ccc(F)cc2F)nn1C(F)F (stereo not drawn)
output: 2

---

Test system: Ipomoea hederacea (IPOHE)
Assay: Herbicidal efficacy, application post-emergence
Format: in vivo
Conditions: 250 g/ha, evaluated visually after 13 days, scale 0-5
MEASURED QUANTITY: phytotoxicity to the plant, IPOHE
Numbers only.

Answered cases to consult:
Cc1c(Br)c(C2CN(C)C(=O)C2C(=O)Nc2ccc(F)nc2F)nn1C(F)F (centres unmarked)
1
CCc1cc(C2CN(C)C(=S)C2C(=O)Nc2cccc(F)c2F)nn1C(F)F (centres unmarked)
4
CCc1cc(C2CN(C)C(=S)C2C(=O)Nc2ccc(F)cc2F)nn1C(F)F (centres unmarked)
1

Can you give me phytotoxicity to the plant, IPOHE for all of these, one by one?
1. CCc1cc(C2CN(C)C(=O)C2C(=O)Nc2ccc(F)nc2F)nn1C(F)F (centres unmarked)
2. Cc1c(Br)c(C2CN(C)C(=O)C2C(=O)Nc2ccc(F)cc2F)nn1C(F)F (centres unmarked)
3. Cc1cc(C2CN(C)C(=O)C2C(=O)Nc2ccc(F)cc2F)nn1C(F)F (centres unmarked)
4. CCc1cc(C2CN(C)C(=S)C2C(=O)Nc2ccc(F)nc2F)nn1C(F)F (centres unmarked)
5. Cc1cc(C2CN(C)C(=S)C2C(=O)Nc2ccc(F)nc2F)nn1C(F)F (centres unmarked)

output:
1. 4
2. 1
3. 3
4. 1
5. 1

---

System: Abutilon theophrasti (ABUTH)
Test: Herbicidal efficacy, application post-emergence
Type: in vivo
Settings: 250 g/ha, evaluated visually after 13 days, scale 0-5
Procedure: Seeds of a variety of test species [Ipomoea hederacea (IPOHE); Zea mays (ZEAMX); Echinochloa crus-galli (ECHCG); Setaria faberi (SETFA); Abutilon theophrasti (ABUTH); Amaranthus retroflexus (AMARE)] were sown in standard sterilised soil in pots. […] After 13 days for pre- and post-emergence, the test was evaluated visually for percentage phytotoxicity to the plant (where 5 = total damage to plant; 0 = no damage to plant).
Hi there, I'd appreciate the recorded phytotoxicity to the plant, ABUTH for every entry that follows.
Give bare numbers.

Answered cases to consult:
CCc1cc(C2CN(C)C(=S)C2C(=O)Nc2ccc(F)nc2F)nn1C(F)F (stereo not drawn) [Compound 86]
3
Cc1cc(C2CN(C)C(=S)C2C(=O)Nc2ccc(F)cc2F)nn1C(F)F (stereo not drawn) [Compound 61]
0
CCc1cc(C2CN(C)C(=O)C2C(=O)Nc2ccc(F)nc2F)nn1C(F)F (stereo not drawn) [Compound 82]
1
Cc1c(F)cccc1NC(=O)C1C(=O)N(C)CC1c1cc(C)n(C(F)F)n1 (stereo not drawn) [Compound 9]
0
Cc1cc(C2CN(C)C(=O)C2C(=O)Nc2cccc(F)c2F)nn1C(F)F (stereo not drawn) [Compound 33]
1
CCc1cc(C2CN(C)C(=O)C2C(=O)Nc2ccc(F)cc2F)nn1C(F)F (stereo not drawn) [Compound 58]
0

Can you give me phytotoxicity to the plant, ABUTH for all of these, one by one?
1. Cc1c(Br)c(C2CN(C)C(=O)C2C(=O)Nc2ccc(F)nc2F)nn1C(F)F (stereo not drawn) [Compound 83]
2. Cc1cc(C2CN(C)C(=O)C2C(=O)Nc2ccc(F)nc2F)nn1C(F)F (stereo not drawn) [Compound 81]
3. Cc1cc(C2CN(C)C(=S)C2C(=O)Nc2ccc(F)nc2F)nn1C(F)F (stereo not drawn) [Compound 85]

output:
[1, 0, 0]
